These entries and their values trace back to patent US20260265199A1.

# Assay Info: Solubility in water and biologically relevant media (SGF, FeSSIF, FaSSIF), HPLC, pH, XRPD
# Type: physicochemical
# Measurement Context: pH 4.88, thermodynamic from solid; FeSSIF, 37° C., 2 hours
Structures can show the parent of a compound that is named as a salt.
Assay Readout: solubility at 2 h (µg/mL)
Quick note: give the figure in µg/mL, leave out the unit.

Any idea what its solubility at 2 h is? The compound is Cc1cc(NC(=O)[C@H](O)c2cc(F)cc(F)c2)ccc1-c1cnc(N)c(C(=O)NC(C)C)c1 [Form A of the hemi-fumarate salt] 149

* * *

# Assay Info: Phase 1a study: pharmacokinetics after oral BID dosing in subjects with advanced solid tumors
# Assay type: in vivo, human
# Measurement Context: human, in vivo; 50 mg single oral dose, Cycle 1 Day 1, geometric mean, N = 3
Structures can show the parent of a compound that is named as a salt.
Assay Readout: AUC(0-inf)
# do not omit the unit; it follows the number

Which AUC(0-inf) value belongs to Cc1cc(NC(=O)[C@H](O)c2cc(F)cc(F)c2)ccc1-c1cnc(N)c(C(=O)NC(C)C)c1 [Form A of the hemi-fumarate salt] ? 5650 ng·h/mL

* * *

# Assay Info: Phase 1a study: pharmacokinetics after oral BID dosing in subjects with advanced solid tumors
# Assay type: in vivo, human
# Measurement Context: human, in vivo, po, 400 mg, 400 mg single oral dose, Cycle 1 Day 1, median, N = 3
Structures can show the parent of a compound that is named as a salt.
Assay Readout: Tmax (h)
Give a bare numeral; the unit h is implied.

# get_value(readout='Tmax', item= Cc1cc(NC(=O)[C@H](O)c2cc(F)cc(F)c2)ccc1-c1cnc(N)c(C(=O)NC(C)C)c1 [Form A of the hemi-fumarate salt] ) 2

* * *

# Assay Info: Phase 1a study: pharmacokinetics after oral BID dosing in subjects with advanced solid tumors
# Type: in vivo, human
# Measurement Context: human, in vivo, po, 400 mg, 400 mg twice daily oral, Cycle 1 Day 21, geometric mean, N = 2; read-out: t1/2, eff (converted)
Where a name gives a salt, the structure may show the parent alone.
Assay Readout: half-life

I'd like to know its half-life. The compound in question is Cc1cc(NC(=O)[C@H](O)c2cc(F)cc(F)c2)ccc1-c1cnc(N)c(C(=O)NC(C)C)c1 [Form A of the hemi-fumarate salt] 38.5 h

* * *

# Assay Info: Phase 1a study: pharmacokinetics after oral BID dosing in subjects with advanced solid tumors
# Format: in vivo, human
# Measurement Context: human, in vivo, po, 25 mg, 25 mg single oral dose, Cycle 1 Day 1, median, N = 3
Structures can show the parent of a compound that is named as a salt.
Assay Readout: Tmax (h)
Write down the numeric answer in h and omit the unit.

Tell me the measured Tmax of Cc1cc(NC(=O)[C@H](O)c2cc(F)cc(F)c2)ccc1-c1cnc(N)c(C(=O)NC(C)C)c1 [Form A of the hemi-fumarate salt] , please. 8

* * *

# Assay Info: Solubility study of Form A of the compound of formula (I) in solvents (aliquot addition, visual)
# Type: physicochemical
# Measurement Context: organic solvent or mixture, thermodynamic from solid; methanol, room temperature; read-out: Approximate Solubility
Assay Readout: solubility (mg/mL)
Express your answer in mg/mL, writing the number without its unit.

Entry Cc1cc(NC(=O)[C@H](O)c2cc(F)cc(F)c2)ccc1-c1cnc(N)c(C(=O)NC(C)C)c1 [Form A of the compound of formula (I)] : reported solubility = ? 103

* * *

# Assay Info: Phase 1a study: pharmacokinetics after oral BID dosing in subjects with advanced solid tumors
# Format: in vivo, human
# Measurement Context: human, in vivo, po, 300 mg, 300 mg single oral dose, Cycle 1 Day 1, geometric mean, N = 4; interpret with caution, terminal elimination phase not well captured; read-out: t1/2 (converted)
Structures can show the parent of a compound that is named as a salt.
Assay Readout: half-life (h)
A number alone suffices; assume h.

Which half-life reading was recorded for the molecule Cc1cc(NC(=O)[C@H](O)c2cc(F)cc(F)c2)ccc1-c1cnc(N)c(C(=O)NC(C)C)c1 [Form A of the hemi-fumarate salt] ? 6.88

* * *

# Assay Info: Solubility study of Form A of the compound of formula (I) in solvents (aliquot addition, visual)
# Type: physicochemical
# Measurement Context: organic solvent or mixture, thermodynamic from solid; acetonitrile, room temperature; read-out: Approximate Solubility
# Method: A solubility study of Form A in various solvent systems was conducted according to the following protocol: aliquots of the test solvent systems were added to weighed samples of Form A, prepared according to Example 27, at room temperature. The resulting mixtures were sonicated between solvent additions to facilitate dissolution. Complete dissolution of the test material was determined visually. The solubility was estimated based on the total solvent used to provide complete dissolution.
Assay Readout: solubility (mg/mL)
Write the value in mg/mL as a bare number.

Recorded solubility for Cc1cc(NC(=O)[C@H](O)c2cc(F)cc(F)c2)ccc1-c1cnc(N)c(C(=O)NC(C)C)c1 [Form A of the compound of formula (I)] , please? 12

* * *

# Assay Info: Phase 1a study: pharmacokinetics after oral BID dosing in subjects with advanced solid tumors
# Format: in vivo, human
# Measurement Context: human, in vivo, po, 25 mg, 25 mg single oral dose, Cycle 1 Day 1, geometric mean, N = 3; read-out: AUC0-12
Where a name gives a salt, the structure may show the parent alone.
Assay Readout: AUC(0-t) (ng·h/mL)
Express the result in ng·h/mL but write the number alone.

Entry Cc1cc(NC(=O)[C@H](O)c2cc(F)cc(F)c2)ccc1-c1cnc(N)c(C(=O)NC(C)C)c1 [Form A of the hemi-fumarate salt] : reported AUC(0-t) = ? 850

* * *

# Assay Info: Phase 1a study: pharmacokinetics after oral BID dosing in subjects with advanced solid tumors
# Format: in vivo, human
# Measurement Context: human, in vivo, po, 400 mg, 400 mg single oral dose, Cycle 1 Day 1, geometric mean, N = 3; read-out: AUC0-last
Counter-ions that a name gives are not always drawn.
Assay Readout: AUC(0-t) (µg·h/mL)
All answers are understood in µg·h/mL, so give the number only.

Recorded AUC(0-t) of Cc1cc(NC(=O)[C@H](O)c2cc(F)cc(F)c2)ccc1-c1cnc(N)c(C(=O)NC(C)C)c1 [Form A of the hemi-fumarate salt] , please. 3.83

* * *

# Assay Info: Phase 1a study: pharmacokinetics after oral BID dosing in subjects with advanced solid tumors
# Format: in vivo, human
# Measurement Context: human, in vivo, po, 300 mg, 300 mg single oral dose, Cycle 1 Day 1, median, N = 4
# From the text: This example describes a first in human, Phase 1a, multi-center, open-label study to establish the maximum tolerated dose (MTD) and evaluate the safety and tolerability of oral dosing of Form A of the hemi-fumarate salt of the compound of formula (I) (Example 11) in a dose-escalating fashion. […]
Counter-ions that a name gives are not always drawn.
Assay Readout: Tmax (h)
Lab book: enter the figure in h, no units written.

Would you kindly share the measured Tmax for Cc1cc(NC(=O)[C@H](O)c2cc(F)cc(F)c2)ccc1-c1cnc(N)c(C(=O)NC(C)C)c1 [Form A of the hemi-fumarate salt] ? 7

* * *

# Assay Info: Solubility of hemi-fumarate Form A by visual assessment upon solvent addition
# Assay type: physicochemical
# Measurement Context: MeOH, organic solvent or mixture, thermodynamic from solid, MeOH; read-out: Solubility
Where a name gives a salt, the structure may show the parent alone.
Assay Readout: solubility

Tell me the measured solubility of Cc1cc(NC(=O)[C@H](O)c2cc(F)cc(F)c2)ccc1-c1cnc(N)c(C(=O)NC(C)C)c1 [Form A of the hemi-fumarate salt] , please. > 50 mg/mL

* * *

# Assay Info: Phase 1a study: pharmacokinetics after oral BID dosing in subjects with advanced solid tumors
# Format: in vivo, human
# Measurement Context: human, in vivo, po, 100 mg, 100 mg twice daily oral, Cycle 1 Day 21, geometric mean, N = 3
Where a name gives a salt, the structure may show the parent alone.
Assay Readout: Cmax (ng/mL)
// units = ng/mL; emit number, no label

Consider the compound Cc1cc(NC(=O)[C@H](O)c2cc(F)cc(F)c2)ccc1-c1cnc(N)c(C(=O)NC(C)C)c1 [Form A of the hemi-fumarate salt] and give its measured Cmax. 1310
